Reference for the values: patent US20260356856A1

Kindly state IC50 for each of the entries shown.
Molecular target: KRas-mediated phosphorylation of ERK in A549 cells (Homo sapiens, UniProt P01116, G12S)
Construct: pERK HTRF read-out
Sequence (P01116 1-188 isoform P01116-2 G12S): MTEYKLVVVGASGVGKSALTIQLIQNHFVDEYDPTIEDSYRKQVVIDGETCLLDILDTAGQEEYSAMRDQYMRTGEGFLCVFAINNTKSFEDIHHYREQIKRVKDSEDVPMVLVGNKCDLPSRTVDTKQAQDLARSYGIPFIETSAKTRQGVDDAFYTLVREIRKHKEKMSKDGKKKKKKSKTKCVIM
Experiment: Inhibition of KRas-mediated phosphorylation of ERK (HTRF), A549 cells
Assay type: cell-based
Details: HTRF pERK, 3 h incubation

The examples below pair each entry with its known result.
{"COMPOUND": "CCc1c(F)ccc2cc(O)cc(-c3ncc4c(N5CC(C(=O)n6ccc(C)n6)C6(CC6)C5)nc(OC[C@@]56CCCN5C[C@H](F)C6)nc4c3F)c12 (stereo partly drawn)", "IC50": "> 10000 nM"}
{"COMPOUND": "CCc1c(F)ccc2cc(O)cc(-c3ncc4c(N5C[C@H]6CC[C@@]6(C(=O)n6ccc(C)n6)C5)nc(OC[C@@]56CCCN5C[C@H](F)C6)nc4c3F)c12", "IC50": "> 10000 nM"}

Switching to the query record.
// IC50 lookup, compound = CCc1c(F)ccc2cc(O)cc(-c3ncc4c(N5CCOCC(C(=O)n6ccc(C)n6)C5)nc(OC[C@@]56CCCN5C[C@H](F)C6)nc4c3F)c12 (stereo partly drawn) , result: > 10000 nM
